# assay.text: qHTS assay to identify small molecule antagonists of the estrogen related receptor signaling pathway with the pleiotropic PPARgamma coactivator (PGC) from Tox21 10K library - cell viability counter screen (AID 1224840); note: nearly all actives have a fitted effect of over 40% in size
# run.conditions: PGC/ERR reporter cells viability, CellTiter-Fluor, 17.5 h; series mostly up to 92.4 µM
Inconclusive results are not listed. Active and inactive are the calls of the source. Calls come from the whole dose curve; as a rule, active = well fitted cell-killing curve with a large enough effect in the repeat runs (not every such curve was filed as active); inconclusive = weak or mixed curves, or effect the other way; inactive = no such curve, though single readings can be large or run the other way.
Pick one: YES for active, NO for inactive

Sample answers from the record:
CN(C)Cc1cc(C(C)(C)C)c(O)c(C(C)(C)C)c1 : NO
OC1CCCc2ccccc21 (configuration not stated) : NO
Cc1c(C)c([N+](=O)[O-])c(C(C)(C)C)c([N+](=O)[O-])c1C : NO
CC[N+](CC)(CC)CCOC(=O)C(C1CCCC1)C1CCCC1 : NO
CCC(=O)C(=O)CC : NO

Query: recorded result category for CN(C)CCN1CCN(c2cccc(Cl)c2)C1=O in this test
Reply: NO

Query: Would you kindly repeat that for COc1cc(S(=O)(=O)O)c(C)cc1N=Nc1c(O)ccc2cc(S(=O)(=O)O)ccc12 ?
Reply: YES

Query: Would you kindly repeat that for S=C([S-])NCCNC(=S)[S-].S=C([S-])NCCNC(=S)[S-].[Mn+2].[Zn+2] ?
Reply: NO

Query: Would you kindly repeat that for CCc1cccc(CC)c1NC(=O)CN(CC(=O)O)CC(=O)O ?
Reply: NO

Query: Would you kindly repeat that for Clc1sc(Cl)c(Cl)c1Cl ?
Reply: NO

Query: Would you kindly repeat that for c1ccc(SSc2ccccc2)cc1 ?
Reply: NO

Query: Would you kindly repeat that for O=C(/C=C/c1ccccc1)OC/C=C/c1ccccc1 ?
Reply: NO
